- System: TK-10 renal
- Assay Remarks: NCI-60 one-dose screen, 48 h
- Assay Setup: 10 µM unless noted
About 83,000 compounds went through this panel and 20% of them were active in at least one assay; those are over-represented in the sample as a whole. The source made the active and inactive calls. Rule for the calls: active = growth percent below 10; inactive = the rest.
Outcomes: active, inactive

>>> class_name("O=C(N/N=C/c1coc2ccccc2c1=O)c1cc2oc(-c3ccccc3)cc2[nH]1")
"inactive"
>>> class_name("O=CN/N=C/c1ccc(Cl)c([N+](=O)[O-])c1")
"active"
>>> class_name("CCCCCCCCCc1cc[n+](CC(=O)c2ccc([N+](=O)[O-])cc2)cc1")
"inactive"
>>> class_name("CCCCCCCCCCCCCCCCCC(=O)Nc1ccc(O)cc1")
"inactive"
>>> class_name("CCCCS(=O)(=O)c1cc(Nc2ccc(O)c3c2C(=O)c2ccccc2C3=O)ccc1C")
"inactive"
>>> class_name("COc1ccc(-c2nc(N)n(C(=S)Nc3ccccc3)n2)cc1")
"inactive"
>>> class_name("CC(=O)Nc1nc(C)c(C(=O)NN)s1")
"inactive"
>>> class_name("COc1ccc(C(O)(c2ccccc2)C(C(=O)O)c2ccccc2)cc1 (configuration not stated)")
"inactive"
>>> class_name("CC(=O)N1N=C(c2ccc(Cl)cc2)CC1c1cn(-c2ccccc2)nc1-c1ccc([N+](=O)[O-])cc1 (configuration not stated)")
"inactive"
>>> class_name("CCCCCCCCCCCCCCCCNC(=S)N/N=C/c1ccc(OC)cc1")
"inactive"
>>> class_name("CCCCCCC(C)N(CC(C)(C)O)C(=O)c1ccc([N+](=O)[O-])cc1 (configuration not stated)")
"inactive"
>>> class_name("Cc1ccc2c(O)c(O)cc(NC(C)CCCN)c2n1 (configuration not stated)")
"inactive"
>>> class_name("Cc1ccc(S(=O)(=O)N/N=C2\\CC3CCC2C3)cc1 (configuration not stated)")
"inactive"
>>> class_name("CCCCCCCCC1OC1CCCCCCCC(=O)O (configuration not stated)")
"inactive"
>>> class_name("N=C(N)c1ccc(-c2ccc(-c3cc(Cl)cc(Cl)c3)s2)cc1")
"active"
>>> class_name("COc1cc2ncnc(Nc3ccc4c(cnn4C(=O)Nc4ccccc4)c3)c2cc1OC")
"inactive"
>>> class_name("N#Cc1c(N)nc(Nc2nc3ccccc3[nH]2)nc1-c1ccc(Cl)cc1")
"inactive"
>>> class_name("COc1ccc(CN2C(=O)/C(=C\\C(=O)c3ccc(OCCN4CCCCC4)cc3)c3ccccc32)cc1")
"inactive"
>>> class_name("O=C(Nc1cccc(Cn2c(=O)[nH]c3ccc(Oc4ncccn4)cc3c2=O)c1)c1cc(Cl)cc(Cl)c1")
"inactive"
>>> class_name("CCOC(=O)C1CCCN1C(=O)C1(NC(C)=O)CCCC1 (configuration not stated)")
"inactive"
>>> class_name("O=C(Oc1ccccc1)c1ccccc1Cl")
"inactive"
>>> class_name("O=C1Nc2ccccc2/C1=C/c1cn(CC(O)Cn2cc(/C=C3\\C(=O)Nc4ccccc43)c3ccccc32)c2ccccc12 (configuration not stated)")
"active"
>>> class_name("CC1(C)C(O)NC(Cl)=C(C#N)C1(C#N)C#N (configuration not stated)")
"inactive"
>>> class_name("C=CCNC(=S)NNc1ccc([N+](=O)[O-])cn1")
"inactive"
>>> class_name("Oc1ccccc1/C=N/N=C/c1c(O)ccc2ccccc12")
"inactive"
>>> class_name("COc1ccc(C(=O)c2no[n+]([O-])c2C(=O)c2ccc(OC)cc2)cc1")
"active"
>>> class_name("Cc1nc(N)sc1C(=O)NCCO")
"inactive"
>>> class_name("Oc1ccc(Br)cc1/C=N/NC(=S)NC12CC3CC(CC(C3)C1)C2")
"inactive"
>>> class_name("CCCCCCCCCCCCCCCC[n+]1cccc(C#N)c1")
"inactive"
>>> class_name("CCOC(=O)CSSCC(=O)OCC")
"inactive"
>>> class_name("O=C(CN1C(=O)NC(c2ccccc2)(c2ccccc2)C1=O)c1ccc(N2CCCC2)cc1")
"inactive"
>>> class_name("CC(C)CSc1nc(-c2ccc(F)cc2)c(C#N)c(N2CCCCC2)n1")
"inactive"

* * *

- System: OVCAR-8 ovarian
- Assay Remarks: NCI-60 one-dose screen, 48 h
- Assay Setup: 10 µM unless noted
Compounds without any hit were thinned out: in the full panel of roughly 83,000, 20% have a hit. The source made the active and inactive calls. The calls were made as follows: active = growth percent below 10; inactive = the rest.
Outcomes: 1.0 (active), 0.0 (inactive)

>>> class_name("Cc1ccc2c(c1)C(=O)CCS2")
0.0
>>> class_name("COC(=O)[C@H](Cc1cn(C)cn1)NC(=O)[C@H](Cc1c[nH]c2ccccc12)NC(=O)Nc1cc(C(F)(F)F)cc(C(F)(F)F)c1")
1.0
>>> class_name("COC(=O)c1ccc2[nH]c(O)c(C(=Nc3ccc(N(C)C(=O)CN4CCN(C)CC4)cc3)c3ccc(OC)cc3)c2c1")
0.0
>>> class_name("Cc1cc(CSc2ccc(Cl)cc2)ccc1N")
0.0
>>> class_name("COc1cc(-c2nc3c(c(C)nc4c3nnn4-c3ccccc3)c(=O)o2)cc(OC)c1OC")
0.0
>>> class_name("CCOc1ccc(N(C)c2ccc(/C=C/C3=[N+](C)c4ccccc4C3(C)C)cc2)cc1")
1.0
>>> class_name("CC(=O)CCS(=O)c1ccccc1 (configuration not stated)")
0.0
>>> class_name("Nc1cc(N)c2nc(-c3ccccc3)c(NCCc3ccc(Cl)c(Cl)c3)nc2c1")
1.0
>>> class_name("CC[N+](C)(C)N")
0.0
>>> class_name("COc1cccc2c1n([O-])c1cccc(OC)c1[n+]2=O")
0.0
>>> class_name("COc1cc(Cn2ccc3c2-c2oncc2CC3)cc(OC)c1")
0.0
>>> class_name("COC(=O)c1ccc2[nH]c(O)c(C(=Nc3ccc(N(C)C(=O)CN4CCN(C)CC4)cc3)c3ccc(N)cc3)c2c1")
0.0
>>> class_name("O=C(Oc1ccccc1)c1ccccc1Cl")
0.0
>>> class_name("COc1cc2ncnc(Nc3ccc4c(cnn4C(=O)Nc4ccccc4)c3)c2cc1OC")
0.0
>>> class_name("CCc1ccc(C(=Nc2ccc(N(C)C(=O)CN3CCN(C)CC3)cc2)c2c(O)[nH]c3ccc(C(=O)OC)cc23)cc1")
1.0
>>> class_name("C=CC1CN2CCC1CC2C(O)c1ccnc2ccc(OC)cc12 (configuration not stated)")
0.0
>>> class_name("CC(=O)Nc1ccc(S(=O)(=O)Cl)cc1")
0.0
>>> class_name("CC1(C)CC(=O)C2=C(C1)Oc1nc(N)c(C#N)c(N)c1C2c1ccc(F)cc1 (configuration not stated)")
0.0
>>> class_name("Cn1cnc2nc[nH]c2c1=S")
0.0
>>> class_name("COc1ccc(-c2nc(SCC(C)C)nc(Nc3ccc([N+](=O)[O-])cc3)c2C#N)cc1")
0.0
>>> class_name("C[C@]12CC[C@H]3[C@@H](CC[C@H]4C[C@@H](O)CC[C@@]43C)[C@@H]1CC(=O)C2")
0.0
>>> class_name("BrCCCOc1ccc(Oc2ccc(OCCCBr)cc2)cc1")
0.0
>>> class_name("COc1ccc(Cn2cc3c(c2)-c2oncc2CC3)cc1OC")
0.0
>>> class_name("CC(C)OCC1CO1 (configuration not stated)")
0.0
>>> class_name("Cc1sc(NC(=O)c2ccc(C(C)(C)C)cc2)c(C(=O)O)c1C")
0.0
>>> class_name("O=C1C(=O)c2ccccc2C(O)=C1CCCc1ccc(C2CCCC2)cc1")
0.0
>>> class_name("COc1ccc(-c2nc(Nc3nc4ccccc4[nH]3)nc(N)c2C#N)cc1")
0.0
>>> class_name("CC1=C(C)C[C@]2(C(=O)O[C@H]3CCCC[C@@H]32)[S@](=O)C1")
0.0
>>> class_name("N#Cc1ccc(NC2c3ccccc3CC2O)cc1 (configuration not stated)")
0.0
>>> class_name("COc1ccc(C(O)(c2ccccc2)C(C(=O)O)c2ccccc2)cc1 (configuration not stated)")
0.0
>>> class_name("CCOC(=O)C1=C(C(F)(F)F)NC(=S)NC1CN1C(=O)c2ccccc2C1=O (configuration not stated)")
0.0
>>> class_name("O=C1C(Cl)=C(Nc2ccc(Nc3ccccc3)c(NC3=C(Cl)C(=O)c4ccccc4C3=O)c2)C(=O)c2ccccc21")
0.0

* * *

- System: HOP-62 NSCLC
- Assay Remarks: NCI-60 one-dose screen, 48 h (100 = growth as untreated, 0 = no growth, -100 = all killed)
- Assay Setup: 10 µM unless noted
This is part of a sample that, as a whole, favours compounds with a hit. Of some 83,000 tested, about 20% had one in any assay. The source made the active and inactive calls. How the source made its calls: active means growth percent below 10; inactive means the rest.
Measurement Label: growth

>>> value_reported("C/C=C(/C)C(=O)OC1C=C(CO)C(=O)C(OC(=O)/C(C)=C\\C)C1C(C)C (configuration not stated)")
"-31.4% (active)"
>>> value_reported("O=C(O)CS(=O)c1ccc(Cl)cc1 (configuration not stated)")
"101% (inactive)"
>>> value_reported("C/C=C(/C)C(=O)OC1C=C(CO)C(=O)C(OC(=O)C2(C)OC2C)C1C(C)C (configuration not stated)")
"0.921% (active)"
>>> value_reported("CCCCCCCCCC(C)NC(=O)CCl (configuration not stated)")
"102% (inactive)"
>>> value_reported("Nc1nc(-c2cccc(Br)c2)cc(-c2cc3ccccc3oc2=O)n1")
"90.9% (inactive)"
>>> value_reported("COc1ccc(-c2nc(SCC(C)C)nc(Nc3ccc(C)cc3)c2C#N)cc1")
"88.5% (inactive)"
>>> value_reported("O=C(NCCCl)Nc1nccnc1OCc1ccc(F)cc1")
"91.4% (inactive)"
>>> value_reported("CCN(CC)CCOC(=O)c1cccnc1")
"94.6% (inactive)"
>>> value_reported("COc1cc2c(c(OC)c1OC)C(=O)CC(c1cccc(C(=O)Nc3cccc(Br)c3)c1)O2 (configuration not stated)")
"86% (inactive)"
>>> value_reported("O=C(C(=O)N1CCOCC1)c1ccc(O[C@H]2O[C@H](CO)[C@@H](O)[C@H](O)[C@@H]2O)cc1")
"111% (inactive)"
>>> value_reported("CC(O)CCC(C)[N+](=O)[O-] (configuration not stated)")
"95.4% (inactive)"
>>> value_reported("Oc1ccc(N=Nc2ccc(N=Nc3ccccc3)cc2)cc1")
"59.3% (inactive)"
>>> value_reported("CC(C)(CNC1CCCCC1)OC(=O)c1ccccc1")
"102% (inactive)"
>>> value_reported("COc1cc(-c2nn(-c3ccc(NC(=O)Nc4ccc(Cl)c(C(F)(F)F)c4)cc3)cc2-c2ccncc2)ccc1Cl")
"8.98% (active)"
>>> value_reported("Cc1cc(CSc2ccc(Cl)cc2)ccc1N")
"110% (inactive)"
>>> value_reported("OC(c1ccccc1)(c1ccccc1)C(F)(F)F")
"102% (inactive)"
>>> value_reported("COc1cc2cn3c4ccc(O)cc4[nH]c(=O)c3c2cc1OC")
"4.45% (active)"
